# Tested on: intestinal alkaline phosphatase [Mus musculus]
# test.method.notes: mouse intestinal phosphatase enzyme activation – biochemical, luminescence, single concentration, confirmation (AID 434970)
# experimental.parameters: purified mouse IAP, CDP-Star luminescence, 30 min, at 10 µM; measured here: IAP activation factor, stronger effect = higher value
In all, about 11,000 compounds went through this assay and about 310 (2.8%) were called active. The full list was thinned out, with actives kept by preference.
quantity.name: activation factor
Give your answer as a number; write no unit.

Check out these entries, answers already filled in.
molecule="Cc1occc1-c1nnc(SCC(=O)Nc2ccc3c(c2)OCO3)n1CC1CCCO1 (stereo not given)" target_or_system="intestinal alkaline phosphatase [Mus musculus]" reported_measurement=0.919
molecule=CC(C)Oc1cccc(C(=O)Nc2ccc(N3CCN(S(C)(=O)=O)CC3)cc2)c1 target_or_system="intestinal alkaline phosphatase [Mus musculus]" reported_measurement=1.1
molecule="COC(=O)CCN(C(=O)C1C2CC3CC(C2)CC1C3)c1ccccn1 (stereo not given)" target_or_system="intestinal alkaline phosphatase [Mus musculus]" reported_measurement=0.948
molecule=COC(=O)[C@H](Cc1ccc(O)cc1)NC(=O)Cn1cnc2c(NCc3ccccc3)ncnc21 target_or_system="intestinal alkaline phosphatase [Mus musculus]" reported_measurement=1.08
molecule=Cn1nc(OC(=O)Nc2cccc(Cl)c2)cc1C(F)(F)F target_or_system="intestinal alkaline phosphatase [Mus musculus]" reported_measurement=2.51

Query string: Could you tell me which activation factor is on file for "N#Cc1c(-c2ccc(Cl)cc2)ccn2nc(CCC(=O)O)nc12" ?
Result string: 1.15

Query string: Could you tell me which activation factor is on file for COc1cccc(C(CC(=O)Nc2cccc3ccccc23)NC(=O)c2ccccc2)c1 (stereo not given) ?
Result string: 2.19

Query string: Could you tell me which activation factor is on file for "COc1cccc(OCC(=O)Nc2ccccc2NC(C)=O)c1" ?
Result string: 1.08

Query string: Could you tell me which activation factor is on file for "CCOc1ccc(-n2cc(C(=O)Nc3ccc(Cl)cn3)c3cc(OC)c(OC)cc3c2=O)cc1" ?
Result string: 0.946

Query string: Could you tell me which activation factor is on file for "O=C(Nc1ccc(-n2ccc(C(F)(F)F)n2)cc1)Nc1cccc(Cl)c1" ?
Result string: 1.92

Source of measurements: PubChem BioAssay AID434970
